Listed below: GI50 values for each entry.
system: UACC-257; assay: NCI tumour cell line growth inhibition, 48 h
Active and inactive are the calls of the source. Rule as the data show it: active = GI50 up to about 1.1 µM and inactive = higher.
measured property: GI50

>>> test_result("CC(C)(C)COC(=O)C(C)(C)NC(=O)C(CC(=O)OCc1ccccc1)NC(=O)OCc1ccccc1 (stereo not given)")
"25.5 µM (inactive)"
>>> test_result("O=P1(O)c2ccccc2CSCc2ccccc21")
"> 100 µM (inactive)"
>>> test_result("CCCNC(=S)N/C=C1/C(=O)Oc2ccccc2C1=O")
"> 100 µM (inactive)"
>>> test_result("O=C(NC(=O)c1c(Cl)nc2sccn12)Nc1ccc(Cl)cc1")
"> 100 µM (inactive)"
>>> test_result("C[N+](C)([O-])CCOc1cc2c(c3ccccc13)-c1ccccc1C2=O")
"6.65 µM (inactive)"
>>> test_result("COC(=O)c1cn(CC(O)CCl)nn1 (stereo not given)")
"> 100 µM (inactive)"
>>> test_result("C[N+](C)(CCNc1ccc(NCC[N+](C)(C)Cc2ccc([N+](=O)[O-])cc2)c2c1C(=O)c1c(O)ccc(O)c1C2=O)Cc1ccc([N+](=O)[O-])cc1")
"> 50 µM (inactive)"
>>> test_result("CC(C)CCNC(=O)c1ccc(CNC(=O)/C=C/c2ccc3c(c2)-c2ccccc2C3)cc1")
"95.9 µM (inactive)"
>>> test_result("COc1c(Br)cc(CC(N)=O)c(O)c1Br")
"> 100 µM (inactive)"
>>> test_result("CSc1[nH]nc(N)c1C(=O)Nc1ccc(C)cc1")
"62.4 µM (inactive)"
>>> test_result("CCOC(=O)NNC(=O)NC12CC3CC(CC(C3)C1)C2")
"> 100 µM (inactive)"
>>> test_result("CC(C)(C)n1c(=O)[nH]c(=O)n1C(C)(C)C")
"> 100 µM (inactive)"
>>> test_result("CC[C@H](C)[C@H](NC(=O)N(CCC#N)CCN(CCN(C(=O)N[C@@H](Cc1ccccc1)C(=O)OC)c1ccccc1)C(=O)N[C@H](C(=O)OC)C(C)C)C(=O)OC")
"13.5 µM (inactive)"
>>> test_result("O=c1[nH]c(=O)n(C2OC(CO)C(O)C(F)C2O)cc1F (stereo not given)")
"> 100 µM (inactive)"
>>> test_result("CCCCC[C@@H]1OC(=O)[C@@]2(CC3c4ccccc4C2c2ccccc23)[C@H]1C(=O)OC")
"14.5 µM (inactive)"
>>> test_result("CC12OC1(C)C1C(=O)OCC1C2=O (stereo not given)")
"> 100 µM (inactive)"
>>> test_result("COc1ccc2c(c1)c1ccc3c(c1n2C)C(=O)C=CC3=O")
"10.9 µM (inactive)"
>>> test_result("O=c1ccc2ccc(O)c3c4c(O)ccc5ccc(=O)c(c1c23)c54")
"1.49 µM (inactive)"
>>> test_result("CC(=O)NN(c1ccccc1)C1CCN(c2ccccc2)N1C(C)=O (stereo not given)")
"> 10 µM (inactive)"
>>> test_result("C/C(CC(=O)Nc1cc(C)ccc1C)=N/N=C(N)N")
"> 100 µM (inactive)"

====

Listed below: GI50 values for each entry.
system: BT-549; assay: NCI tumour cell line growth inhibition, 48 h
Calls of active or inactive are those of the source. No stated cut-off is given here; in the data, active = GI50 up to about 1.1 µM and inactive = higher.
measured property: GI50

>>> test_result("CC(=O)OCC1C(C(C)OC(C)=O)CCC2C1CCC1(C)C(OC(C)=O)CCC21 (stereo not given)")
"11.6 µM (inactive)"
>>> test_result("CC1CCCC(C(=O)CC2CC(=O)NC(=O)C2)C1=O (stereo not given)")
"> 100 µM (inactive)"
>>> test_result("C[C@H](c1ccccc1)n1c(N)c(-c2nc3ccccc3s2)c2ccc([N+](=O)[O-])cc2c1=O")
"11.5 µM (inactive)"
>>> test_result("Cc1noc(NS(=O)(=O)c2ccc(NC(=O)c3ccc4[nH]c5ccccc5c(=O)c4c3)cc2)c1C")
"33.3 µM (inactive)"
>>> test_result("N#CCc1n[nH]c2nc(SCc3ccccc3)nc(N3CCCCC3)c12")
"18.6 µM (inactive)"
>>> test_result("Cc1cc(C)nc(NCCC(O)(P(=O)(O)O)P(=O)(O)O)n1")
"> 100 µM (inactive)"
>>> test_result("Cc1cc(S(=O)(=O)Nc2nnc3c(C(F)(F)F)cc(Cl)cn23)c(S)cc1Cl")
"> 100 µM (inactive)"
>>> test_result("Nc1nc(Cl)cc(Oc2ccc(Cl)cc2)n1")
"28.2 µM (inactive)"
>>> test_result("COC(=O)c1c(C)cccc1C1CN=NC12Cc1c(C)cccc1C2=O (stereo not given)")
"> 100 µM (inactive)"
>>> test_result("C[C@]12CC[C@H]3[C@@H](CCC4=CC(=O)CC[C@@]43C)[C@@H]1CC[C@@H]2C(=O)COS(=O)(=O)c1ccc(Br)cc1")
"10 µM (inactive)"

These data points were gathered from ChEMBL document CHEMBL1201862.
